Assayed System: Estrogen receptor (Homo sapiens, UniProt P03372)
pKi: −log10 of the molar value.
Value Kind: pKi

Cc1ncsc1-c1ccc([C@H](C)NC(=O)[C@@H]2C[C@H](O)CN2C(=O)[C@@H](NC(=O)CCCCCOc2ccc(N(CC(F)(F)F)S(=O)(=O)C3CC4OC3C(c3ccc(O)cc3)=C4c3ccc(O)cc3)cc2)C(C)(C)C)cc1 (some centres undefined)    5.60
COc1ccc(N(CC(F)(F)F)S(=O)(=O)C2CC3OC2C(c2ccc(OCCCCCC(=O)N[C@H](C(=O)N4C[C@H](O)C[C@H]4C(=O)NCc4ccc(-c5scnc5C)cc4)C(C)(C)C)cc2)=C3c2ccc(O)cc2)cc1 (some centres undefined)    5.73
O=C(COc1cccc2c1C(=O)N(C1CCC(=O)NC1=O)C2=O)NCCCCCCOc1ccc(N(CC(F)(F)F)S(=O)(=O)C2CC3OC2C(c2ccc(O)cc2)=C3c2ccc(O)cc2)cc1 (centres undefined)    5.73
O=C(COc1ccc(C2CCC(=O)NC2=O)cc1)NCCCCCCNC(=O)COc1ccc(N(CC(F)(F)F)S(=O)(=O)C2CC3OC2C(c2ccc(O)cc2)=C3c2ccc(O)cc2)cc1 (centres undefined)    5.95

----------
// values below are reported IC50
Tested on: T47D
Procedure Text: cells
Reported Conditions: Homo sapiens, 72 h
Value Kind: IC50 (µM)

C[C@]12CC[C@@H]3c4ccc(O)cc4C[C@@H](CCCCCCCCC[S+]([O-])CCCC(F)(F)C(F)(F)F)[C@H]3[C@@H]1CC[C@@H]2O (stereo partly drawn) [FULVESTRANT]    3.92
O=C(COc1ccc(C2CCC(=O)NC2=O)cc1)NCCNC(=O)COc1ccc(N(CC(F)(F)F)S(=O)(=O)C2CC3OC2C(c2ccc(O)cc2)=C3c2ccc(O)cc2)cc1 (stereo not drawn)    19.7

----------
Sequence of the target: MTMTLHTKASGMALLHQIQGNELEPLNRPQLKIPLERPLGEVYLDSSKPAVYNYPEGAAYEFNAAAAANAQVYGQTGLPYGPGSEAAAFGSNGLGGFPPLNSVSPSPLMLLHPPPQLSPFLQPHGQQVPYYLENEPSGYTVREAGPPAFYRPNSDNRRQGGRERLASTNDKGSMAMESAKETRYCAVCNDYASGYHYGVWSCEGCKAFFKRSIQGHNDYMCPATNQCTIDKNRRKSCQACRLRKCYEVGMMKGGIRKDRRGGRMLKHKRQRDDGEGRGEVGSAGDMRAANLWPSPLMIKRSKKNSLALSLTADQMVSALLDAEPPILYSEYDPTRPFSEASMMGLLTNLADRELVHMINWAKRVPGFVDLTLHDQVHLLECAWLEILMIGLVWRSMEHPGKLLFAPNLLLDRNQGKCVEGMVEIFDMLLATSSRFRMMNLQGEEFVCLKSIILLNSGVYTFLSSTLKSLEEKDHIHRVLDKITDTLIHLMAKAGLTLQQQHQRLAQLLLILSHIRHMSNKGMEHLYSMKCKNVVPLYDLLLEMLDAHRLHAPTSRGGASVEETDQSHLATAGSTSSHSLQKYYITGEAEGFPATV
Value Kind: Ki (µM)

CCN(c1ccc(OCCCCCCCC(=O)N[C@H](C(=O)N2C[C@H](O)C[C@H]2C(=O)NCc2ccc(-c3scnc3C)cc2)C(C)(C)C)cc1)S(=O)(=O)C1CC2OC1C(c1ccc(O)cc1)=C2c1ccc(O)cc1 (stereo partly drawn)    0.75
O=C(COc1cccc2c1C(=O)N(C1CCC(=O)NC1=O)C2=O)NCCCCOc1ccc(N(CC(F)(F)F)S(=O)(=O)C2CC3OC2C(c2ccc(O)cc2)=C3c2ccc(O)cc2)cc1 (stereo not drawn)    3.38
Cc1ncsc1-c1ccc([C@H](C)NC(=O)[C@@H]2C[C@@H](O)CN2C(=O)[C@@H](NC(=O)CCCCCOc2ccc(N(CC(F)(F)F)S(=O)(=O)C3CC4OC3C(c3ccc(O)cc3)=C4c3ccc(O)cc3)cc2)C(C)(C)C)cc1 (stereo partly drawn)    5.08

----------
Tested on: T47D
Procedure Text: cells
Reported Conditions: Homo sapiens, 72 h
Value Kind: IC50 (µM)

CCN(c1ccc(OCCCCC(=O)N[C@H](C(=O)N2C[C@H](O)C[C@H]2C(=O)N[C@@H](C)c2ccc(-c3scnc3C)cc2)C(C)(C)C)cc1)S(=O)(=O)C1CC2OC1C(c1ccc(O)cc1)=C2c1ccc(O)cc1 (stereo not given in full)    14.6
CCN(c1ccc(OCCCCC(=O)N[C@H](C(=O)N2C[C@H](O)C[C@H]2C(=O)NCc2ccc(-c3scnc3C)cc2)C(C)(C)C)cc1)S(=O)(=O)C1CC2OC1C(c1ccc(O)cc1)=C2c1ccc(O)cc1 (stereo not given in full)    4.58
CCN(c1ccc(OCCCCCC(=O)N[C@H](C(=O)N2C[C@H](O)C[C@H]2C(=O)N[C@@H](C)c2ccc(-c3scnc3C)cc2)C(C)(C)C)cc1)S(=O)(=O)C1CC2OC1C(c1ccc(O)cc1)=C2c1ccc(O)cc1 (stereo not given in full)    8.12
Cc1ncsc1-c1ccc(CNC(=O)[C@@H]2C[C@@H](O)CN2C(=O)[C@@H](NC(=O)CCCCCOc2ccc(N(CC(F)(F)F)S(=O)(=O)C3CC4OC3C(c3ccc(O)cc3)=C4c3ccc(O)cc3)cc2)C(C)(C)C)cc1 (stereo not given in full)    11.3
O=C(COc1ccc(C2CCC(=O)NC2=O)cc1)NCCCCNC(=O)COc1ccc(N(CC(F)(F)F)S(=O)(=O)C2CC3OC2C(c2ccc(O)cc2)=C3c2ccc(O)cc2)cc1 (stereo not given)    17.7

----------
Procedure Text: Selectivity index, ratio of Ki for ERalpha (unknown origin) to Ki for ERbeta (unknown origin)
Value Kind: Ratio Ki

O=C(COc1cccc2c1C(=O)N(C1CCC(=O)NC1=O)C2=O)NCCCCCCCCOc1ccc(N(CC(F)(F)F)S(=O)(=O)C2CC3OC2C(c2ccc(O)cc2)=C3c2ccc(O)cc2)cc1 (stereo not given)    3.39
O=C(COc1ccc(C2CCC(=O)NC2=O)cc1)NCCNC(=O)COc1ccc(N(CC(F)(F)F)S(=O)(=O)C2CC3OC2C(c2ccc(O)cc2)=C3c2ccc(O)cc2)cc1 (stereo not given)    5.08
CCN(c1ccc(OCCCCCC(=O)Nc2cccc3c2C(=O)N(C2CCC(=O)NC2=O)C3=O)cc1)S(=O)(=O)C1CC2OC1C(c1ccc(O)cc1)=C2c1ccc(O)cc1 (stereo not given)    4.52
Cc1ncsc1-c1ccc([C@H](C)NC(=O)[C@@H]2C[C@H](O)CN2C(=O)[C@@H](NC(=O)CCCCCOc2ccc(N(CC(F)(F)F)S(=O)(=O)C3CC4OC3C(c3ccc(O)cc3)=C4c3ccc(O)cc3)cc2)C(C)(C)C)cc1 (stereo not given in full)    6.2
O=C(COc1ccc(C2CCC(=O)NC2=O)cc1)NCCCCNC(=O)COc1ccc(N(CC(F)(F)F)S(=O)(=O)C2CC3OC2C(c2ccc(O)cc2)=C3c2ccc(O)cc2)cc1 (stereo not given)    3.44

----------
Assayed System: Protein cereblon/Estrogen receptor (Homo sapiens) (UniProt P03372+Q96SW2)
Sequence (Q96SW2 whole entry, looked up, one chain of several): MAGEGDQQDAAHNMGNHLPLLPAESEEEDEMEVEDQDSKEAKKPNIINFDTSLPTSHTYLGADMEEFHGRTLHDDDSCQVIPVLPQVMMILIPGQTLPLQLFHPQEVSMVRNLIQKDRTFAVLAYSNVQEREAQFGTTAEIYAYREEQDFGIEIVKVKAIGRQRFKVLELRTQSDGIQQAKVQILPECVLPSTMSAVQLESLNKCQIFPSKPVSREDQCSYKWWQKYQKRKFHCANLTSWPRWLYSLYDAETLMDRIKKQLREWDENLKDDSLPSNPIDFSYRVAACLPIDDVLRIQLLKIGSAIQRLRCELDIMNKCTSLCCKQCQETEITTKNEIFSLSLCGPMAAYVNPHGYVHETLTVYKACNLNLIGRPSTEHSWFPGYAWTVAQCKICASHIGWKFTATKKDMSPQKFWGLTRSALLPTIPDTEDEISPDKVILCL
Procedure Text: PROTAC activity at CRBN/wild type ERalpha in ER-positive human MCF7 cells assessed as induction of ERalpha degradation at 1 uM incubated for 12 hrs by Western blot analysis
Format: cell-based
Calls of active or inactive are those of the source. The calls are words filed in the database; no cut-off is given here.
Classes used: active, inactive

O=C(COc1ccc(C2CCC(=O)NC2=O)cc1)NCCCCNC(=O)COc1ccc(N(CC(F)(F)F)S(=O)(=O)C2CC3OC2C(c2ccc(O)cc2)=C3c2ccc(O)cc2)cc1 (configuration not stated)    active
O=C(COc1ccc(C2CCC(=O)NC2=O)cc1)NCCCCCCNC(=O)COc1ccc(N(CC(F)(F)F)S(=O)(=O)C2CC3OC2C(c2ccc(O)cc2)=C3c2ccc(O)cc2)cc1 (configuration not stated)    active
O=C(COc1cccc2c1C(=O)N(C1CCC(=O)NC1=O)C2=O)NCCCCCCCCOc1ccc(N(CC(F)(F)F)S(=O)(=O)C2CC3OC2C(c2ccc(O)cc2)=C3c2ccc(O)cc2)cc1 (configuration not stated)    inactive
O=C(COc1ccc(C2CCC(=O)NC2=O)cc1)NCCNC(=O)COc1ccc(N(CC(F)(F)F)S(=O)(=O)C2CC3OC2C(c2ccc(O)cc2)=C3c2ccc(O)cc2)cc1 (configuration not stated)    active
CCN(c1ccc(OCCCCCC(=O)Nc2cccc3c2C(=O)N(C2CCC(=O)NC2=O)C3=O)cc1)S(=O)(=O)C1CC2OC1C(c1ccc(O)cc1)=C2c1ccc(O)cc1 (configuration not stated)    inactive
O=C(COc1cccc2c1C(=O)N(C1CCC(=O)NC1=O)C2=O)NCCCCCCOc1ccc(N(CC(F)(F)F)S(=O)(=O)C2CC3OC2C(c2ccc(O)cc2)=C3c2ccc(O)cc2)cc1 (configuration not stated)    active
O=C(COc1cccc2c1C(=O)N(C1CCC(=O)NC1=O)C2=O)NCCCCOc1ccc(N(CC(F)(F)F)S(=O)(=O)C2CC3OC2C(c2ccc(O)cc2)=C3c2ccc(O)cc2)cc1 (configuration not stated)    inactive

Ref: ChEMBL document CHEMBL5338775
